Consider the following compounds and their measured Diameter of zone of inhibition readings.
system: B. subtilis AWD 166; assay: agar diffusion test (antimicrobial effect); type: cell-based, Bacillus subtilis; conditions: Quantity n 0.019
Record the result as a number with its unit.

> print(dat)
                                   compound        tested.system  endpoint.value
1  N[C@@H](C(=O)N[C@@H]1C(=O)N2C(C(=O)O)=C(Cl)CS[C@H]12)c1ccccc1 [2c, Cefaclor, reference compound]  B. subtilis AWD 166           36 mm

Query block: Reported Diameter of zone of inhibition, compound CC1=C(C(=O)O)N2C(=O)[C@@H](NC(=O)[C@H](N)c3ccc(O)cc3)[C@H]2SC1 [2a, Cefadroxil, reference compound] : ____
Result block: 36 mm

Query block: Would you mind telling me what Diameter of zone of inhibition value was observed for CCOC(=O)C1=C(NC(C(=O)NC2C(=O)N3C(C(=O)O)=C(Cl)CSC23)c2ccccc2)C(=O)C=CC1=O (stereo not shown) ?
Result block: 30 mm

Query block: Item COC(=O)C1=C(NC(C(=O)NC2C(=O)N3C(C(=O)O)=C(C)CSC23)c2ccc(O)cc2)C(=O)C=CC1=O (stereo not shown) has what recorded Diameter of zone of inhibition?
Result block: 22 mm

---

system: Staphylococcus aureus 315; experiment: agar diffusion test (Test System II, multi-resistant germs); assay type: cell-based; design: key: r = resistant (no detectable zone of inhibition); conditions: Quantity n 0.1
Assay Endpoint: Diameter of zone of inhibition

> print(dat)
                                   molecule  endpoint.value
1  CC1=C(C(=O)O)N2C(=O)[C@@H](NC(=O)[C@H](N)c3ccc(O)cc3)[C@H]2SC1 [2a, Cefadroxil, reference compound]               r
2  CC1=C(C(=O)O)N2C(=O)C(NC(=O)C(NC3=C(C(N)=O)C(=O)C=CC3=O)c3ccccc3)C2SC1 (stereo not drawn)               r
3  COC(=O)C1=C(NC(C(=O)NC2C(=O)N3C(C(=O)O)=C(C)CSC23)c2ccc(O)cc2)C(=O)C=CC1=O (stereo not drawn)               r
